Entry source: the supplement of paper PMC13380429

Quick reference: cell viability of the listed items.
system: Calu-3; assay: cell viability relative to DMSO; higher = less toxic; settings: 72 h; 100 nM
Answer with the value and then the unit.

COc1ccc(N(C(=O)Oc2c(C)cccc2C)c2ccnc(Nc3ccc(N4CCN(C)CC4)cc3)n2)c(OC)c1 [WH-4-023]: 95.8%
O=C(O)C(=O)CBr [3-bromopyruvate]: 105%
O=C1[C@@H]2[C@H]3CC[C@H](C3)[C@@H]2C(=O)N1CCCCN1CCN(c2ncccn2)CC1 [tandospirone]: 92%
N#Cc1cc(-c2n[nH]c(-c3ccncc3)n2)ccn1 [topiroxostat]: 107%

Inquiry: Name the recorded cell viability for COc1cc(Cc2cnc(N)nc2N)cc(OC)c1OC [trimethoprim] .
Reply text: 107%
